All figures here come from patent US20230357348A1.

- assaySystem: human glucagon receptor (hGCGR) (human, UniProt P47871 26-477)
- Sequence (P47871 26-477): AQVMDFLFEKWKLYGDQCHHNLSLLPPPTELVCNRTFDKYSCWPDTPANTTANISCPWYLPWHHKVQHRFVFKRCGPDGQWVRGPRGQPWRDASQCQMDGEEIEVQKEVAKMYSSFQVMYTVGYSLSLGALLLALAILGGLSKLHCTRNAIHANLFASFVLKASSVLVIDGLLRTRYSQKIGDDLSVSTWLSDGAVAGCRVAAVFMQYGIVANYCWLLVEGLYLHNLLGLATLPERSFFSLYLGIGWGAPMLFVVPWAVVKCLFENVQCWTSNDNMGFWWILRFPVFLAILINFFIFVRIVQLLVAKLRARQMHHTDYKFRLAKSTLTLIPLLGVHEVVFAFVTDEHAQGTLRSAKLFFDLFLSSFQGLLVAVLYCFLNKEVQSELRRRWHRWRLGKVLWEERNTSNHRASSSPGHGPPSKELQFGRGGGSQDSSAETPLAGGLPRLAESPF
- assayName: cell-based or functional assay
Starred links: 1 amine or outer side, 2 acyl side, 3 side chain; linkers in the order of their positions; H or OH if unused. Non-standard residues stand in square brackets, D forms with d. Groups on a side chain read outwards from the residue. Primed or numbered codes have the meaning given here. No end group written: not given here. *: point of attachment. (PEG)2″ = polyethylene glycol 2 linker unit; Dip = N[C@H](C(=O)O)C(c1ccccc1)c1ccccc1; γGlu = O=C(O)[C@H](CCC(=O)[*:2])N[*:1]; Palmitoyl = CCCCCCCCCCCCCCCC(=O)*; αMeF = C[C@](N)(Cc1ccccc1)C(=O)O; (PEG)2 = polyethylene glycol 2; PEG2′ = polyethylene glycol 2; Aib = CC(C)(N)C(=O)O
Would you kindly list hGluc-R EC50 (pM) for each of these binders?
Give bare numbers, in pM.

# example entries with known answers
binder | recordedNumber
HSQGS[αMeF]TSDVSK[αMeF]LDSK([(PEG)2-(PEG)2-γGlu-γGlu-Palmitoyl])AAQD[αMeF]VQ[Aib]IAN-NH2 [Peptide 87] | 8.46
HSQGS[αMeF]TSDVSK[αMeF]LDSK([(PEG)2-(PEG)2-γGlu-γGlu-Palmitoyl])AAQD[αMeF]VQ[Aib]LEAGG-NH2 [Peptide 79] | 10.7
HSQGS[αMeF]TSDVSK[Aib]LDSK([(PEG)2″-(PEG)2″-γGlu-γGlu-Stearyl])AAQD[αMeF]VQ[Aib]IAN-NH2 [Peptide 100] | 40.5
HSQGS[αMeF]TSDVSKILDSK([PEG2′-PEG2′-γGlu-γGlu-Palmitoyl])AAQD[αMeF]VQ[Aib]IINT-NH2 [Peptide 118] | 1.2

Turning now to a further record.
Query: Returns the measured hGluc-R EC50 (pM) for the input binder. Input: HSQGS[αMeF]TSDVSK[Dip]LDSK([(PEG)2-(PEG)2-γGlu-γGlu-Palmitoyl])AAQD[αMeF]VE[Aib]IINT-NH2 [Peptide 64]
Result: 3.06
